System: MDA-MB-468 breast
TEST SUMMARY: NCI tumour cell line growth inhibition, 48 h; in the data active = GI50 below about 0.43 µM; inactive = the rest
Field 'call' accepts true (1) for active, false (0) for inactive

Below, 3 compounds whose answers are already recorded.
| COMPOUND | CLASS ASSIGNMENT |
| --- | --- |
| O=C(/C(=C\c1ccc([N+](=O)[O-])cc1)S(=O)Cc1ccc(F)cc1)c1ccc(F)cc1 (centres undefined) | false (0) |
| COc1ccc2c(c1)[nH]c(=O)c1c3cc(OC)ccc3cn21 | true (1) |
| O=C1c2nsnc2C(=O)c2c(F)c(F)c(F)c(F)c21 | false (0) |

Q: Hi, sorry to bother you, what did the test record for Clc1ccc2c(c1)N(c1ncnc3ccc(-c4cnc5[nH]ccc5c4)cc13)CC2 ?
Ans: true (1)

Q: Hi, sorry to bother you, what did the test record for CN(Cc1cc(Br)cc(Br)c1O)Cc1cc(Br)cc(Br)c1O ?
Ans: false (0)

Q: Hi, sorry to bother you, what did the test record for O=C1Nc2c(C(F)(F)F)cccc2[C@@]1(c1ccc(O)cc1)c1ccc(OC(F)(F)F)cc1 ?
Ans: true (1)

Q: Hi, sorry to bother you, what did the test record for O=C(Cn1c(-c2ccccc2)nc2ccccc21)N=Nc1c(O)[nH]c2ccc(Cl)cc12 ?
Ans: false (0)

Q: Hi, sorry to bother you, what did the test record for Cn1cc(C2=C(c3cn(C)c4c([N+](=O)[O-])cccc34)C(=O)NC2=O)c2ccccc21 ?
Ans: false (0)

Q: Hi, sorry to bother you, what did the test record for Cc1ccc(-c2cc(C(F)(F)F)nn2-c2ccc(S(N)(=O)=O)cc2)cc1 ?
Ans: false (0)

Q: Hi, sorry to bother you, what did the test record for CCCCCCCCCCCCCCCCCCCC(=O)NCCc1c[nH]c2ccc(OC(=O)NOCCOCCOCCOCCOCCOCCOCCOCCOCCOCCOCCOCCOCCOCCOCCOCCOCCOCCOCCOCCOCCOCCOC)cc12 ?
Ans: false (0)

Q: Hi, sorry to bother you, what did the test record for COc1cc(-c2nc3ccccc3s2)ccc1NC(=O)COc1ccc(Cl)cc1 ?
Ans: false (0)

Q: Hi, sorry to bother you, what did the test record for COc1ccc(C(=O)c2cc(OC)c(OC)c(OC)c2)cc1/C=C/C(=O)c1ccc(OC)c(OC)c1 ?
Ans: false (0)

Q: Hi, sorry to bother you, what did the test record for CCCCCCCCN(CCCCCCCC)CCCCCCNc1cc(OC)cc2cccnc12 ?
Ans: false (0)

Q: Hi, sorry to bother you, what did the test record for COC1CCN(C(=O)c2cc(Cc3n[nH]c(=O)c4ccccc34)ccc2F)CC1 ?
Ans: false (0)
